Data provenance is ChEMBL document CHEMBL2346553.

experimental-protocol: in vitro
condition-context: human, CEM cells

{"smiles-string": "COC(=O)N[C@H](C(=O)N1CCC[C@H]1c1ncc(-c2ccc(-c3ccc(OC(F)(F)F)cc3)cc2)[nH]1)C(C)C", "CC50": "10 µM"}
{"smiles-string": "COC(=O)N[C@H](C(=O)N1CCC[C@H]1c1ncc(-c2ccc(C(F)(F)F)cc2)[nH]1)C(C)C", "CC50": "> 100 µM"}
{"smiles-string": "COC(=O)N[C@H](C(=O)N1CCC[C@H]1c1ncc(-c2ccc(OC(F)(F)F)cc2)[nH]1)C(C)C", "CC50": "> 100 µM"}
{"smiles-string": "COC(=O)N[C@H](C(=O)N1CCC[C@H]1c1nc(Cl)c(-c2ccc(N=[N+]=[N-])cc2)[nH]1)C(C)C", "CC50": "> 100 µM"}

* * *

Below is a list of entries, each paired with its recorded log10(EC90) value.
System: Hepatitis C virus
experimental-protocol: microbe, parasite or virus in culture
condition-context: genotype 1b, Huh-7
experimental-readout: log10(EC90) (log10 of the value in nM)

{"smiles-string": "COC(=O)N[C@H](C(=O)N1CCC[C@H]1c1nc(I)c(-c2ccc(N=[N+]=[N-])cc2)[nH]1)C(C)C", "tgt": "Hepatitis C virus", "log10(EC90)": 0.48}
{"smiles-string": "COC(=O)N[C@H](C(=O)N1CCC[C@H]1c1ncc(-c2ccc(-c3ccc(O)cc3)cc2)[nH]1)C(C)C", "tgt": "Hepatitis C virus", "log10(EC90)": 1.23}
{"smiles-string": "COC(=O)N[C@H](C(=O)N1CCC[C@H]1c1ncc(-c2ccc(-c3ccc(-c4cnc([C@@H]5CCCN5C(=O)[C@@H](NC(=O)OC)C(C)C)[nH]4)cc3)cc2)[nH]1)C(C)C", "tgt": "Hepatitis C virus", "log10(EC90)": -1.52}
{"smiles-string": "COC(=O)N[C@H](C(=O)N1CCC[C@H]1c1nc(-c2ccc(-c3ccc(CO)cc3)cc2)c[nH]1)C(C)C", "tgt": "Hepatitis C virus", "log10(EC90)": 0.95}
{"smiles-string": "COC(=O)N[C@H](C(=O)N1CCC[C@H]1c1ncc(-c2ccc(-c3ccc(C(N)=O)cc3)cc2)[nH]1)C(C)C", "tgt": "Hepatitis C virus", "log10(EC90)": 1.88}
{"smiles-string": "COC(=O)N[C@H](C(=O)N1CCC[C@H]1c1nc(-c2ccc(-c3ccc(C(F)(F)F)cc3)cc2)c[nH]1)C(C)C", "tgt": "Hepatitis C virus", "log10(EC90)": 0.98}
{"smiles-string": "COC(=O)N[C@H](C(=O)N1CCC[C@H]1c1nc(Br)c(-c2ccc(N=[N+]=[N-])cc2)[nH]1)C(C)C", "tgt": "Hepatitis C virus", "log10(EC90)": 0.46}

* * *

Target protein (sequence): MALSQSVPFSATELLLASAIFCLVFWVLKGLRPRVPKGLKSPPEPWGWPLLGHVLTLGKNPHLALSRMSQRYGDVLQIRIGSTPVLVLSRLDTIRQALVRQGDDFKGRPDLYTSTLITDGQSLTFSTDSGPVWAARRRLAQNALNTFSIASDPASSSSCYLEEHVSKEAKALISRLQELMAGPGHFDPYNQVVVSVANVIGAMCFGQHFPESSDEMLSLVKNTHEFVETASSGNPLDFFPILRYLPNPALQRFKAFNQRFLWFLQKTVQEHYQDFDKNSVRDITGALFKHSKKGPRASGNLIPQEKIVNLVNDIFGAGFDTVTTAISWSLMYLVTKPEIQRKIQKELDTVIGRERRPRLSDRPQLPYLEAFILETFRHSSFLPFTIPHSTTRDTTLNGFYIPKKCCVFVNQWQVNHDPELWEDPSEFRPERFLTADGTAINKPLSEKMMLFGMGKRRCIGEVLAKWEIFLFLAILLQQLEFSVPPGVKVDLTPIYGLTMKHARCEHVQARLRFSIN
pIC50: −log10 of the molar value.
Below is a list of entries, each paired with its recorded pIC50 value.

{"smiles-string": "COC(=O)N[C@H](C(=O)N1CCC[C@H]1c1nc(-c2ccc(-c3ccc(CO)cc3)cc2)c[nH]1)C(C)C", "operator-symbol": "=", "pIC50": 4.25}
{"smiles-string": "COC(=O)N[C@H](C(=O)N1CCC[C@H]1c1ncc(-c2ccc(N=[N+]=[N-])cc2)[nH]1)C(C)C", "operator-symbol": "<", "pIC50": 4.00}
{"smiles-string": "COC(=O)N[C@H](C(=O)N1CCC[C@H]1c1nc(-c2ccc(-c3ccc(C(F)(F)F)cc3)cc2)c[nH]1)C(C)C", "operator-symbol": "=", "pIC50": 4.08}
